Give measured inhibition of SARS-CoV-2 cytopathic effect for each item. Keep answers brief.
Tested on: Vero E6 infected with SARS-CoV-2
Experiment: inhibition of SARS-CoV-2 cytopathic effect; higher = more antiviral protection, active = above 15
Conditions: 833.33 nM; 48 h
One number for each entry, in %.

Provide inhibition of SARS-CoV-2 cytopathic effect for all items below, preserving their order.
1. CCCCNc1nc(N)c2[nH]c(=O)n(Cc3ccc(OCCN(C)C)nc3)c2n1
2. O=[N+]([O-])c1ccc2nc(COCc3nc4ccc([N+](=O)[O-])cc4[nH]3)[nH]c2c1
3. CN(C(=O)CN1C(=O)COc2cc(Cl)c(Cl)cc21)[C@@H](CN1CCCC1)c1ccc(-c2cccc(C(N)=O)c2)cc1
4. Cc1sc(C)c2c1CCC=C2c1c[nH]cn1
5. O.O.O.O.O=C([O-])CC(O)(CC(=O)[O-])C(=O)[O-].[Li+].[Li+].[Li+] [lithium-citrate]
6. O=C1Nc2ccccc2/C1=C1/Nc2ccccc2C1=O
7. c1ccc2c(c1)Sc1ccccc1N2C[C@H]1CN2CCC1CC2
8. CC(=O)OCC1=C(C(=O)O)N2C(=O)[C@@H](NC(=O)Cc3cccs3)[C@H]2SC1

1: -0.4; 2: 0.4; 3: 1.88; 4: -2.81; 5: 1.38; 6: 1.04; 7: -7.33; 8: -0.06

---

Tested on: Vero E6 infected with SARS-CoV-2
Assay: morphology score (similarity to uninfected cells); higher = more like uninfected cells
Details: 24 h
assayReadout: morphology score
One number for each entry.

Check out these entries, answers already filled in.
For the compound O=C(O)COc1cccc(CN(Cc2ccc(-n3cccn3)cc2)S(=O)(=O)c2cccnc2)c1 [taprenepag] (10 µM) , what morphology score is on record?
-0.0257

Can you handle COc1cc2c(N3CCN(C(=O)Nc4ccc(OC(C)C)cc4)CC3)ncnc2cc1OCCCN1CCCCC1 [tandutinib] (10 µM) next?
-0.0843

Here is the next compound: Nc1c2ccccc2nc2ccccc12 [9-aminoacridine] (0.833333 µM)
0.102

Try C=CCN1C[C@H](C(=O)N(CCCN(C)C)C(=O)NCC)C[C@@H]2c3cccc4[nH]cc(c34)C[C@H]21 [cabergoline] (10 µM) next.
0.0903

And what about the compound Oc1cc(Cl)ccc1Oc1ccc(Cl)cc1Cl [triclosan] (10 µM) ?
0.237

Now consider NC(=O)C[S+]([O-])C(c1ccccc1)c1ccccc1 (centres undefined) (10 µM) and answer again.
0.113

Dear colleague, could you please provide morphology score for the compounds listed below?
1. COc1cc(C=O)ccc1O [vanillin] (10 µM)
2. Cc1cc(F)c(Nc2ncnc3cc(OCc4ccccc4)ccc23)cc1O (10 µM)
3. COc1ccc2c(c1)C(C(=O)N(Cc1ccc(N(C)C)cc1)c1ccc(C(C)C)cc1)CCC2 (centres undefined) (10 µM)
4. CC(=O)OCC(=O)[C@@]12OC3(CCCC3)O[C@@H]1C[C@H]1[C@@H]3CCC4=CC(=O)C=C[C@]4(C)[C@@]3(F)[C@@H](O)C[C@@]12C [amcinonide] (10 µM)
5. CCCCCCCCCCOc1cc2c(O)c(C(=O)OCC)cnc2cc1OCC [decoquinate] (10 µM)
6. O=C(O)CNC(=O)c1ccccc1I [2-iodohippuric-acid] (10 µM)
7. O=[N+]([O-])c1cnc(Sc2nnc(O)n2-c2ccc3c(c2)OCCO3)s1 (0.833333 µM)
8. COc1cccc(CCc2ccccc2OCC(CN(C)C)OC(=O)CCC(=O)O)c1 (centres undefined) [sarpogrelate] (10 µM)

1. 0.0882
2. 0.0561
3. 0.106
4. 0.114
5. 0.147
6. -0.111
7. 0.392
8. 0.198

Fill in morphology score for each of the 4 compounds listed.
1. Cc1ccc2c(Br)cc(Br)c(OC(=O)c3ccccc3)c2n1 [broxaldine] (0.833333 µM)
2. Cc1nccn1CC1CCc2c(c3ccccc3n2C)C1=O (centres undefined) [ondansetron] (10 µM)
3. Clc1cc(Cl)c(OCC#CI)cc1Cl [haloprogin] (10 µM)
4. CC(C)N(CCC(C(N)=O)(c1ccccc1)c1ccccn1)C(C)C (centres undefined) [disopyramide] (10 µM)

0.246
0.253
0.57
0.157
